Tested on: NClH2110
Assay: EZH2 inhibition sensitivity, NClH2110
Assay type: cell-based
Conditions: no mutations or info not available in SMARCA2, SMARCA4, KRAS, read-out: Compound D IC50
quantity.measured: IC50
Include the unit after the number when you answer.

Write down the reported IC50 of CCN(c1cc(-c2ccc(CN3CCOCC3)cc2)cc(C(=O)NCc2c(C)cc(C)[nH]c2=O)c1C)[C@H]1CC[C@H](N(C)C)CC1 [Compound D] , test system: NClH2110.
10 µM

----------
Test system: NCl-H522
Assay: EZH2 inhibition sensitivity, NCl-H522
Assay type: cell-based
Settings: SMARCA2 mRNA/protein loss, SMARCA4 Mutations, KRAS No mutations or info not available, read-out: Compound D IC50
quantity.measured: IC50 (nM)
Please state the figure in nM; there is no need to write the unit.

For CCN(c1cc(-c2ccc(CN3CCOCC3)cc2)cc(C(=O)NCc2c(C)cc(C)[nH]c2=O)c1C)[C@H]1CC[C@H](N(C)C)CC1 , what is its reported IC50?
1140
